- Tested on: CYP enzymes in human liver microsomes (HLM)
- Measurement Description: Inhibition of 20-HETE production in human liver microsomes (HLM)
- Assay type: biochemical
- Condition Info: 100 nM
Reported Metric: HLM (% inh @ 100 nM) (%)

| Compound | Unit Spec | Result Value |
| --- | --- | --- |
| O=C(N1CCC(c2ccc(-c3cn[nH]c3)cc2F)CC1)N1Cc2ccccc2C1 [Compound 136] | % | 87.34 |
| O=C(C1CCC(O)C1)N1CCC(c2ccc(-c3cn[nH]c3)cc2F)CC1 (single isomer, unassigned) [Compound 145b] | % | 88.49 |
| CC(C)(O)CC(=O)N1CCC(c2ccc(-c3cn[nH]c3)cc2F)CC1 [Compound 151] | % | 82.28 |
| O=C(C1CCC(O)C1)N1CCC(c2ccc(-c3cn[nH]c3)cc2F)CC1 (single isomer, unassigned) [Compound 145a] | % | 86.67 |
